Ref: PubChem BioAssay (NCI)

System: PC-3 prostate
Assay: NCI tumour cell line growth inhibition, 48 h
PARAMETER MEASURED: GI50

Example cases with answers are listed next.
1. CCN(CC)CCCNc1cc(OC)cc2nc3cc(Cl)ccc3nc12; 1.97 µM
2. CCCCCCCCCCCCCC[N+](C)(C)CCCCCCCCCCCCCC; 1.85 µM
3. CC1(C)CNc2cc(NC(=O)c3cccnc3NCc3ccncc3)ccc21; 25.4 µM
4. COc1ccc(CN2c3ccccc3Sc3ccccc32)c(C(F)(F)F)c1; 0.546 µM
5. COc1ccc2c(c1)nc(C(=O)c1ccco1)c(C(F)(F)F)[n+]2[O-]; 77.4 µM
6. CCOCCCn1c2c(c3c(O)cccc31)C(=O)c1ccccc1-2; 14.7 µM

Consider the record given below.
Q. Please list GI50 recorded for the compound CC1C(C)N(C(=O)CCl)c2ccccc2N1C(=O)CCl (configuration not stated)
A. 1.19 µM

###

System: NCI-H226 lung
Experiment: NCI tumour cell line growth inhibition, 48 h
PARAMETER MEASURED: TGI

Use the examples below as a reference point.
1. CC1=C(C(=O)Nc2ccccc2)C(c2cccc3ccccc23)C(C(=O)Nc2ccccc2)=C(C)N1; 16 µM
2. COC(=O)N[C@H](C(=O)O)C(C)O[Si](C)(C)C(C)(C)C (some centres not stated); > 100 µM
3. CC1=C2[C@@H](CC1)[C@]1(C)O[C@@](C(C)C)(C[C@H]1OC(=O)CO)[C@H]2OC(=O)C1CC1c1ccccc1 (some centres not stated); 35.7 µM

Q. Given the molecule CC(C)(C)c1ccc(Oc2ccc(N)cn2)cc1 , write its reported TGI.
A. > 100 µM

Q. Complete the entry with TGI for Cc1cc(S(=O)(=O)Nc2nnc3cnc4ccccc4n23)c(S)cc1Cl
A. > 100 µM

###

Entries annotated with measured TGI
Tested on: SR leukemia
Assay: NCI tumour cell line growth inhibition, 48 h
Your answer should be a plain number; it is taken to be in µM.

Sample records with TGI:
1) CC1=C2[C@@H](CC1)[C@]1(C)O[C@@](C(C)C)(C[C@H]1OC(=O)CO)[C@H]2OC(=O)C1CC1c1ccccc1 (some centres undefined); 34.9
2) CCOC(=O)C(NC(=O)c1ccccc1)(N1CCN(c2cc3c(cc2F)c(=O)c(C(=O)O)cn3CC)CC1)C(F)(F)F (centres undefined); 62.5
3) COC1=CC2(CC(OC)=C1OC)OC21COc2ccccc2C1=O (centres undefined); 89.7

Q. Return the recorded TGI value; entry: CN(C)CCNC(=O)c1cccc2cc3c(Cl)cccc3nc12
A. 14.8

Q. Given O=C(NC(=O)c1cc(-c2ccccc2)n[nH]1)c1ccccc1 , respond with its TGI.
A. 79.2

###

Test system: 786-0 renal
Experiment: NCI tumour cell line growth inhibition, 48 h; in the data active = GI50 below about 0.43 µM; inactive = the rest
Parameter call: string, one of YES = active, NO = inactive

Use the examples below as a reference point.
1. CC1=C(c2ccccc2)C(O)(c2ccccc2)C(C)C1=O (stereo not given); NO
2. C[CH2][Ge]([CH2]C)([CH2]C)[O]C(=O)C(OC(C)=O)c1ccccc1 (stereo not given); NO
3. COc1cccc(CC(C)=C(c2ccc(OCCN3CCCCC3)cc2)c2ccc(OCCN3CCCCC3)cc2)c1; NO

Q. GET /call?item= C[C@]12CC[C@H]3[C@@H](CC=C4C[C@@H](N5CCCC5)CC[C@@]43C)[C@@H]1C/C(=C\c1cccc(OCCN3CCOCC3)c1)[C@@H]2O returns the recorded outcome of this test.
A. NO
